# SYSTEM UNDER TEST: CA-IX (Homo sapiens, UniProt Q16790)
# Construct: His tag (C); purchased R&D Systems Inc. 2188-CA; host or cells: mouse myeloma cell line NS0
# ASSAY NAME: Binding affinity (Kd) determination for CA-IX inhibitors, DNSA fluorescence competition assay, Scatchard plots
# CONDITION LABEL: Table 3
# Description: General. […] The human red blood cells were obtained from Research Blood Components, LLC. All absorbance measurements were performed on a SPECTRA MAX M2 plate reader at 25° C. […] 19F NMR spectra were recorded on a Bruker AMX 282.35 MHz or a Varian 400 spectrometer. The mass spectra were recorded on an Agilent 1100 series LC/MSD with electrospray mass spectroscopic detection. […] The radiochemical and chemical purities were analyzed by RP-HPLC. […]
MEASURE: Kd (nM)

MOLECULE: Cc1ccnc(NC(=O)[C@H](Cc2ccccc2)n2cc(-c3ccc(S(N)(=O)=O)cc3)nn2)c1 [DHK7]
Kd [nM]: 17

I. NS(=O)(=O)c1nc2ccc(OCc3cn([C@@H](CCCCNC(=O)CCC(=O)O)C(=O)NCc4ccc(C(F)(F)F)cc4)nn3)cc2s1 [BD2-47]
II. NS(=O)(=O)c1nc2ccc(OCc3cn(CC(=O)N(CC(=O)O)Cc4ccc(C(F)(F)F)cc4)nn3)cc2s1 [BD3-36]
III. NS(=O)(=O)c1nc2ccc(OCc3cn([C@@H](Cc4ccccc4)C(=O)NCc4ccc(C(F)(F)F)cc4)nn3)cc2s1 [DHK2-51]
Incoming: Please list these in order of increasing Kd. Thank you! Please list the labels in the order you were asked to rank them.
Outgoing: III, II, I

* * *

# SYSTEM UNDER TEST: CA-IX (Homo sapiens, UniProt Q16790)
# Construct: His tag (C); purchased R&D Systems Inc. 2188-CA; host or cells: mouse myeloma cell line NS0
# ASSAY NAME: Binding affinity (Kd) determination for CA-IX inhibitors, DNSA fluorescence competition assay, Scatchard plots
# CONDITION LABEL: Table 3
# Protocol: General. […] The human red blood cells were obtained from Research Blood Components, LLC. All absorbance measurements were performed on a SPECTRA MAX M2 plate reader at 25° C. […] 19F NMR spectra were recorded on a Bruker AMX 282.35 MHz or a Varian 400 spectrometer. The mass spectra were recorded on an Agilent 1100 series LC/MSD with electrospray mass spectroscopic detection. […] The radiochemical and chemical purities were analyzed by RP-HPLC. […]
MEASURE: Kd (nM)

COMPOUND: N#Cc1ccc(C[C@H](CC(=O)[C@H](Cc2ccc(OCCF)cc2)n2cc(COc3ccc4nc(S(N)(=O)=O)sc4c3)nn2)C(=O)O)cc1
SYSTEM UNDER TEST: CA-IX (Homo sapiens, UniProt Q16790)
MEASURE: Kd
VALUE: 17

COMPOUND: NS(=O)(=O)c1ccc(-c2cn(Cn3c(=S)sc4ccccc43)nn2)cc1
SYSTEM UNDER TEST: CA-IX (Homo sapiens, UniProt Q16790)
MEASURE: Kd
VALUE: 14

COMPOUND: CC(C)C(C(=O)N[C@@H](Cc1ccc(OC(CO)CF)cc1)C(=O)O)n1cc(COc2ccc3nc(S(N)(=O)=O)sc3c2)nn1 (single isomer, unassigned) [GGC121A]
SYSTEM UNDER TEST: CA-IX (Homo sapiens, UniProt Q16790)
MEASURE: Kd
VALUE: 11

COMPOUND: NS(=O)(=O)c1nc2ccc(OCc3cn(CC(=O)NC(COCc4cccc(OCCNC(=O)CN(CCO)CCO)c4)C(=O)O)nn3)cc2s1 (stereo not shown)
SYSTEM UNDER TEST: CA-IX (Homo sapiens, UniProt Q16790)
MEASURE: Kd
VALUE: 14

* * *

# SYSTEM UNDER TEST: CA-IX (Homo sapiens, UniProt Q16790)
# Construct: His tag (C); purchased R&D Systems Inc. 2188-CA; host or cells: mouse myeloma cell line NS0
# ASSAY NAME: Binding affinity (Kd) determination for CA-IX inhibitors, DNSA fluorescence competition assay, Scatchard plots
# CONDITION LABEL: Table 3
MEASURE: Kd (nM)

A selection of reference data follows.
COMPOUND: NCCOc1cccc(COCC(NC(=O)Cn2cc(COc3ccc4nc(S(N)(=O)=O)sc4c3)nn2)C(=O)O)c1 (stereo not drawn) [DHK3-149]
UNITS SYMBOL: nM
VALUE: 10
--
COMPOUND: NS(=O)(=O)c1nc2ccc(OCc3cn(Cc4cccc(Br)c4)nn3)cc2s1 [DHK121]
UNITS SYMBOL: nM
VALUE: 25
--
COMPOUND: NCC1OC(C(=O)NCCOc2cccc(COCC(NC(=O)Cn3cc(COc4ccc5nc(S(N)(=O)=O)sc5c4)nn3)C(=O)O)c2)C(O)C(O)C1O (stereo not drawn) [DHK3-155]
UNITS SYMBOL: nM
VALUE: 11

1. CC1(C)O[C@@H](CF)[C@H](COc2ccc(CC(C(=O)NC(Cc3ccc(C(F)(F)F)cc3)C(=O)O)n3cc(COc4ccc5nc(S(N)(=O)=O)sc5c4)nn3)cc2)O1 (stereo partly drawn) [BW-139-1A]
2. CC(C)[C@@H](C(=O)N[C@H](Cc1ccc(C(F)(F)F)cc1)C(=O)O)n1cc(COc2ccc3nc(S(N)(=O)=O)sc3c2)nn1 [DHK2-160-F2]
Incoming: Just tell me: smaller Kd value, 1 or 2 ? Reply briefly: the label of your chosen item.
Outgoing: 1

* * *

# SYSTEM UNDER TEST: CA-IX (Homo sapiens, UniProt Q16790)
# Construct: His tag (C); purchased R&D Systems Inc. 2188-CA; host or cells: mouse myeloma cell line NS0
# ASSAY NAME: CA-IX combinatorial library screening, competitive fluorescence-based assay with dansylamide (DNSA)
# Assay type: binding
# CONDITION LABEL: Table 1, Libraries 1-3; sample concentrations 100 nM and 1000 nM, DNSA 200 μM; screening at 1 μM
MEASURE: In Vitro Binding Assay (Library Screening)

A selection of reference data follows.
COMPOUND: COC(=O)[C@H](CSCc1ccccc1)NC(=O)Cn1cc(COc2ccc3nc(S(N)(=O)=O)sc3c2)nn1
VALUE: √ √
--
COMPOUND: CC(C)[C@H](C(=O)NCc1ccco1)n1cc(-c2ccc(S(N)(=O)=O)cc2)nn1 (stereo in doubt)
VALUE: √ √
--
COMPOUND: Cc1ccc(CNC(=O)[C@H](C(C)C)n2cc(COc3ccc4nc(S(N)(=O)=O)sc4c3)nn2)cc1F
VALUE: √
--
COMPOUND: Cc1ccnc(NC(=O)[C@H](Cc2ccccc2)n2cc(-c3ccc(S(N)(=O)=O)cc3)nn2)c1
VALUE: √

Incoming: Find the recorded In Vitro Binding Assay (Library Screening) belonging to CC(C)C(C(=O)NCc1cc(F)ccc1F)n1cc(COc2ccc3nc(S(N)(=O)=O)sc3c2)nn1 (centres unmarked) and report it.
Outgoing: √

Incoming: Now the same for CC(C)[C@@H](C(=O)NCc1ccco1)n1cc(COc2ccc3nc(S(N)(=O)=O)sc3c2)nn1
Outgoing: √

Incoming: Now the same for NS(=O)(=O)c1nc2ccc(OCc3cn(Cc4cccc(Br)c4)nn3)cc2s1
Outgoing: √

Incoming: Now the same for CCOC(=O)c1ccc(Cn2cc(COc3ccc4nc(S(N)(=O)=O)sc4c3)nn2)cc1
Outgoing: √

* * *

# SYSTEM UNDER TEST: CA-IX (Homo sapiens, UniProt Q16790)
# Construct: His tag (C); purchased R&D Systems Inc. 2188-CA; host or cells: mouse myeloma cell line NS0
# ASSAY NAME: Binding affinity (Kd) determination for CA-IX inhibitors, DNSA fluorescence competition assay, Scatchard plots
# CONDITION LABEL: Table 3
MEASURE: Kd (nM)

A selection of reference data follows.
COMPOUND: NS(=O)(=O)c1nc2ccc(OCc3cn([C@@H](Cc4ccc(OCC(O)CF)cc4)C(=O)N[C@@H](Cc4ccc(C(F)(F)F)cc4)C(=O)O)nn3)cc2s1 (some centres unmarked)
UNITS SYMBOL: nM
Kd: 2

COMPOUND: NS(=O)(=O)c1nc2ccc(OCc3cn([C@@H](Cc4ccc(OCCF)cc4)C(=O)N4CCC(C(=O)O)CC4)nn3)cc2s1
UNITS SYMBOL: nM
Kd: 5

COMPOUND: NS(=O)(=O)c1nc2ccc(OCc3cn(CC(=O)N[C@@H](Cc4ccc(OCCF)cc4)C(=O)O)nn3)cc2s1
UNITS SYMBOL: nM
Kd: 3.3

COMPOUND: NS(=O)(=O)c1nc2ccc(OCc3cn(Cn4nnc5ccccc54)nn3)cc2s1
UNITS SYMBOL: nM
Kd: 12.5

COMPOUND: CCOC(=O)C1CCN(C(=O)[C@H](Cc2ccccc2)n2cc(COc3ccc4nc(S(N)(=O)=O)sc4c3)nn2)CC1
UNITS SYMBOL: nM
Kd: 3.4

I. NS(=O)(=O)c1nc2ccc(OCc3cn(CC(=O)N[C@H](CSCc4cccc(OCCOCCOCCF)c4)C(=O)O)nn3)cc2s1
II. N[C@@H](CO)C(=O)NCCOc1cccc(COC[C@H](NC(=O)Cn2cc(COc3ccc4nc(S(N)(=O)=O)sc4c3)nn2)C(=O)O)c1
III. NS(=O)(=O)c1nc2ccc(OCc3cn([C@@H](Cc4ccc(OCCF)cc4)C(=O)O)nn3)cc2s1
Incoming: Please list these in order of increasing Kd. Thank you! Please list the labels in the order you were asked to rank them.
Outgoing: I, II, III
(I: 5 nM, II: 10 nM, III: 17 nM)

a. CC(C)[C@@H](C(=O)NCC1COc2ccccc2O1)n1cc(COc2ccc3nc(S(N)(=O)=O)sc3c2)nn1 (some centres unmarked)
b. COC(=O)C[C@H](NC(=O)[C@H](Cc1ccc(OCCF)cc1)n1cc(COc2ccc3nc(S(N)(=O)=O)sc3c2)nn1)c1ccccc1
Incoming: Just tell me: smaller Kd value, a or b ? Reply briefly: the label of your chosen item.
Outgoing: a

Value source: patent US7829063B2
